target: hCA II (Homo sapiens)
pIC50: −log10 of the molar value.
Overview of recorded pIC50 for various compounds
Measured attribute: pIC50

In [3]: df
Out[3]:
                                   compound  value_observed
0  Nc1cccc(C(=O)Nc2nnc(S(N)(=O)=O)s2)c1 [Compound 12b]            7.10
1  NS(=O)(=O)c1nnc(NC(=O)c2ccc(NC(=O)CCCC(=O)N[C@@H]3O[C@H](CO)[C@@H](O)[C@H](O)[C@H]3O)c(Br)c2)s1 [Compound 14e]            6.05
2  Cc1cc(C(=O)Nc2nnc(S(N)(=O)=O)s2)ccc1N [Compound 12g]            6.92
3  Cc1cc(C(=O)Nc2nnc(S(N)(=O)=O)s2)ccc1NC(=O)CCCC(=O)N[C@@H]1O[C@H](CO)[C@@H](O)[C@H](O)[C@H]1O [Compound 14g]            6.78
